From: patent US20240016952A1

Target: T1, cynomolgus monkey transferrin receptor 1 (cTfR1) (cynomolgus monkey (Macaca fascicularis), UniProt Q5RDH6 89-760 (Pongo abelii entry), limits assumed)
T1 construct: Recombinant cynomolgus TfR1; also called cyTfR1; cyno TfR1
T1 chain: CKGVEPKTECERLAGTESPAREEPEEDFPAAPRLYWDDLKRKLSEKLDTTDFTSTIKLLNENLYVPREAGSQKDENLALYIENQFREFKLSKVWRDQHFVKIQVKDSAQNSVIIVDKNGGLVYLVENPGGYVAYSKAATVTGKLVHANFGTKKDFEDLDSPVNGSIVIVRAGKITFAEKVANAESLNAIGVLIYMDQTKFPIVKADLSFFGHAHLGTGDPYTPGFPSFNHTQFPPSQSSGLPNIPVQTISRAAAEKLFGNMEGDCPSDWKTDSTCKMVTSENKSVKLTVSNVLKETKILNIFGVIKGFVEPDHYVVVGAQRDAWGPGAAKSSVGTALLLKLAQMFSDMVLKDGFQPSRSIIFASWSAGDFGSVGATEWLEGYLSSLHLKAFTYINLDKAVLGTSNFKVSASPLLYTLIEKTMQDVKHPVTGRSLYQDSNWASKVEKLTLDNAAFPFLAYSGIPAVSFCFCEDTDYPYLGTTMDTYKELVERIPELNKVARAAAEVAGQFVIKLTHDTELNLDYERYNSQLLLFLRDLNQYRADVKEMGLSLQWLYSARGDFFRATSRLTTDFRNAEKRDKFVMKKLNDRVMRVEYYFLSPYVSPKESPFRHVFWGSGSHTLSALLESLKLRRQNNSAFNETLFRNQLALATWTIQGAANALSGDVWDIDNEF
Assay: ELISA, cyno TfR1, Fab after 9 days at 40 C
parameter: Binding affinity cyno TfR1 d 9 (nM)
Value expressed in nM; do not type the unit.

humanized anti-TfR Fab 3M12 VH4/Vk2 (Fab, V domains shown) VH: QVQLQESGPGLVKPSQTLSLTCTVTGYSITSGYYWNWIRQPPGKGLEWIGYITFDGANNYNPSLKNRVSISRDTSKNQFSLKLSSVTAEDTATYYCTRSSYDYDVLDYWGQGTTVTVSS VL: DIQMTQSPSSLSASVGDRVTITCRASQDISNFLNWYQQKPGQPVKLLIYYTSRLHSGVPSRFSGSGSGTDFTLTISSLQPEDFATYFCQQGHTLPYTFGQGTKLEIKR: 5.01
humanized anti-TfR Fab 3A4 VH3 (N54T)/Vk4 (Fab, V domains shown) VH: EVQLVQSGSELKKPGASVKVSCTASGFNIKDDYMYWVRQPPGKGLEWIGWIDPETGDTEYASKFQDRVTVTADTSTNTAYMELSSLRSEDTAVYYCTLWLRRGLDYWGQGTLVTVSS VL: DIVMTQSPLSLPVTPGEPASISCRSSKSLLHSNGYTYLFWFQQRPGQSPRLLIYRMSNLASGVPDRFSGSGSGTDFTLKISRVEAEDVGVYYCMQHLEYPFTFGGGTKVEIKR: 128
humanized anti-TfR Fab 5H12 VH5 (C33D)/Vk4 (Fab, V domains shown) VH: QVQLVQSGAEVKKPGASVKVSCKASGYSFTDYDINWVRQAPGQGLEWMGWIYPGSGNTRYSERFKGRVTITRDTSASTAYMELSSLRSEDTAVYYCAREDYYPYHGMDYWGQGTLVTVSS VL: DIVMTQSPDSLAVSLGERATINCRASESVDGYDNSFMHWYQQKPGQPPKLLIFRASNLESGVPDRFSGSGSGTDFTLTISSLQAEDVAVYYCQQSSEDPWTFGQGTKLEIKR: 0.63
humanized anti-TfR Fab 5H12 VH5 (C33Y)/Vk3 (Fab, V domains shown) VH: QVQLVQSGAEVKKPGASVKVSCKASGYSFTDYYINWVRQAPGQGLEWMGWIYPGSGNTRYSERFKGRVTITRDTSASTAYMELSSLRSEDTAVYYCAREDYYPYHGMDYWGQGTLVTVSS VL: DIVLTQSPDSLAVSLGERATINCRASESVDGYDNSFMHWYQQKPGQPPKLLIFRASNLESGVPDRFSGSGSRTDFTLTISSLQAEDVAVYYCQQSSEDPWTFGQGTKLEIKR: 0.69
humanized anti-TfR Fab 3M12 VH4/Vk3 (Fab, V domains shown) VH: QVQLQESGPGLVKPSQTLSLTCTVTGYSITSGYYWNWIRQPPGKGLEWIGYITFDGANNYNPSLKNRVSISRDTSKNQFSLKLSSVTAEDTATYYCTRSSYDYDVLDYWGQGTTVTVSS VL: DIQMTQSPSSLSASVGDRVTITCRASQDISNFLNWYQQKPGQPVKLLIYYTSRLHSGVPSRFSGSGSGTDFTLTISSLQPEDFATYYCQQGHTLPYTFGQGTKLEIKR: 16.4

Now for the binder whose Binding affinity cyno TfR1 d 9 we want.
What measured Binding affinity cyno TfR1 d 9 goes with humanized anti-TfR Fab 3A4 VH3/Vk4 (Fab, V domains shown) VH: EVQLVQSGSELKKPGASVKVSCTASGFNIKDDYMYWVRQPPGKGLEWIGWIDPENGDTEYASKFQDRVTVTADTSTNTAYMELSSLRSEDTAVYYCTLWLRRGLDYWGQGTLVTVSS VL: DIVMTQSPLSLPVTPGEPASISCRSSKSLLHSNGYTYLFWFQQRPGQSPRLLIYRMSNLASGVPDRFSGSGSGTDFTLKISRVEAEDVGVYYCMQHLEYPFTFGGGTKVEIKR ?
878
